Hello, the source for this data is the NTF2 design screens of Basanta et al. (2020), in case you need it.

Procedure Text: protease stability score; higher = more stable; yeast display proteolysis, trypsin and chymotrypsin;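 note: relative to predicted unfolded state with 0 unfolded-like and 1 meaning tenfold more protease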
Property: protease stability score

Biosequence	Result Value
HEEEEWFKEVLHEVERLLMTGDWRTLVELLDPNVRININGVEYHGREEAHHKLEETFRRLGFDHIHFQHVEHQGEKVIVHLEVRFNGQSSIIRFVVLKVNGRWFNHSLQIN	1.29
HHDEELSEHMAHNWLEALLTGDEDMLRELADPHVRYRFNGRQEIGWEHLLRFVNEIRIHELEPRHIQIDLVNGQVHVHIEGTIDGRIGDKDDRRRTTIVLNIRKINGKWILESISMEVE	1.68
DENETALREVIKRYFKAILTGDEHELENLLDPNVRVEINGVKLHGMRDYLEWIREWRIKDMRIRIEHVEVIGNKMIIDSRLRVNETVNGVTRDREKKLHLIVTKINGRWHIEEINEE	2.16
DDMQEIVLRIAEELIHRETTGDEEFIKRLLDPRVRLEINGVDSIGMEEFWRFLFEEEHKLGVDHVRFDIKHIRVVDGRAHSIGILNLNINGKEHRFDVRIDIVVIDGRVREVRIEIR	2.51
DDEERWTEEMYRIMIHIEKTGDEHTFSRLADPNVRLIVGDKHFHGRETFIEQLRKLIEHIRVEKIEIRHVELVGEKVILVMKRLSRIDGREVELEVHVEIVIVNGRYKMIRIEIR	1.43
DHKDELNEHIMKVWIHFLETGDEEFLYDLMDPHARLDFNGREIHGREILYEFWKRWNKRFPNRIDFLDSVRVIGDKVEMDTTLRIDGVRHETEIRIHVYDGKLKHIEYHIR	1.4
HESHNRVERILEEFFKAVETGDWRVLHELLDPHVRLDVDGRDHHGREDFSRFMKEIRVEEFRVTHLQIQGDKANVQSHRVGTYNGKRQEIRTWIHITKIDGQWYITEVTME	0.544
EELERDSKEVAERLLWDTLTGDEDLLLHLMDPHVRHIVNGVKLHGREALERAIEEHLSHLGIDHIRIRHIDFRIINGKMDVHIHGESIYNGRVVHMIIIFISTKVNGKWVLEELSIEIR	1.85
SESEELAEHWFELLIRSILTGDEDTLRRLMDPDVKIQVGDKEWHGREEYIRMVLEFSHLYKNVKLHFRIRSVVDIDGRLTVDTEIINSFDGREYRIDTRLHVDKYDGVWVAKHLIYS	1.39
NEEEETARHAIEEFVRVLMTGDWRTLERLLDPNYRIYQGDKTYIGMEHFLELWVHILDRIKNLRLEIHSYEIQGEKVHIHTILNYDGRDIEYVIIQIKINGRWLLHSLHFL	1.24
SEVEKMARHFVELLSKALLTGNWKTIKELVDPNDLLVVGDKIFHGWDVREEERKRFDHHVMDVKVDHHRDIDGRIEMETTLHLDVNINGVRFHFNHETEMIVRKVNGRWILKSETIR	0.087
